targetOrTestSystem: human GLP-1 receptor (human, UniProt P43220 24-463)
methodSummary: cell-based or functional assay
Numbered stars: 1 amine (or outer) side, 2 acyl side, 3 side chain; on linkers, the order of the positions; unused ones are H or OH. Square brackets hold non-standard residues; d marks the D form. Side chains are listed from the residue outwards. Ends that are not written are not given here. * marks the point of attachment. Decanoyl(10-(4-HOOC-PhO)) = O=C(O)c1ccc(OCCCCCCCCCC(=O)*)cc1; γGlu = O=C(O)[C@H](CCC(=O)[*:2])N[*:1]; C14 diacid = O=C(O)CCCCCCCCCCCCC(=O)*; AEEA = NCCOCCOCC(=O)O; Aib = CC(C)(N)C(=O)O
parameterMeasured: EC50/pM (in vitro potency, cAMP formation, AlphaScreen) (pM)
Just the number in pM, nothing appended.

Worked set:
INSERT INTO results (binder, readoutunits, recordedresult) VALUES
  ('H[Aib]EGTFTSDVSSYLEEQAARK([AEEA-AEEA-γGlu-Decanoyl(10-(4-HOOC-PhO))])FIEWLVRGK([AEEA-AEEA-γGlu-Decanoyl(10-(4-HOOC-PhO))])GEG (also called 31)', 'pM', 37),
  ('H[Aib]EGTFTSDVSSYLEK([AEEA-AEEA-γGlu-C14 diacid])QAVRK([AEEA-AEEA-γGlu-C14 diacid])FIAWLVR', 'pM', 159),
  ('HAEGTFTSDVSSYLEEQK([AEEA-AEEA-γGlu-Decanoyl(10-(4-HOOC-PhO))])VRK([AEEA-AEEA-γGlu-Decanoyl(10-(4-HOOC-PhO))])FIAWLVRGRG (also called 28)', 'pM', 68);

Next:
Q. I am curious: what EC50/pM (in vitro potency, cAMP formation, AlphaScreen) value has been reported for "HAEGTFTSDVSSYLEEQAARK([AEEA-AEEA-γGlu-Decanoyl(10-(4-HOOC-PhO))])FIAWLVRGRK([AEEA-AEEA-γGlu-Decanoyl(10-(4-HOOC-PhO))])" ?
A. 26

Recorded values, source patent US9266940.
